Where do these numbers come from? They come from the supplement of paper PMC10598134.

Collected collision cross section values appear next to each entry.
test: collision cross section of modified peptide (TIMS, N2, iRT-aligned); higher = larger / more extended gas-phase ion; conditions: charge state: 2; modification: Succinyl
Number in Å², nothing else.

Worked cases, answers included:
# query sequence, collision cross section, Å²
records = [
    ("KFGVLSDNFK [_K(Succinyl)FGVLSDNFK_]", 376.58),
    ("IINEPTAAAIAYGLDKK [_IINEPTAAAIAYGLDK(Succinyl)K_]", 465.22),
    ("SITHSTVGSKGEK [_SITHSTVGSK(Succinyl)GEK_]", 392.73),
    ("GAEKTEVAEPR [_GAEK(Succinyl)TEVAEPR_]", 372.49),
]

State its collision cross section: LEQVEKELLR [_LEQVEK(Succinyl)ELLR_]
384.25

Please look at this sequence and report its collision cross section: SPSDSGYSYETIGKTTK [_SPSDSGYSYETIGK(Succinyl)TTK_]
453.06

State, in one line, measured collision cross section of GTVPDDAVEALADSLGKK [_GTVPDDAVEALADSLGK(Succinyl)K_]
459.53

Complete the entry with collision cross section for FSAYIKNSNPALNDNLEK [_FSAYIK(Succinyl)NSNPALNDNLEK_]
492.09

Determine its reported collision cross section: IGNSYFKEEK [_IGNSYFK(Succinyl)EEK_]
382.2

Provide collision cross section value for the following sequence: SGKFTQQDIDEAK [_SGK(Succinyl)FTQQDIDEAK_]
414.39

Complete the entry with collision cross section for LQAAYAGDKADDIQK [_LQAAYAGDK(Succinyl)ADDIQK_]
436.68

Report collision cross section, nothing else, for this sequence: ISSNFSSIIAEKLR [_ISSNFSSIIAEK(Succinyl)LR_]
432.83

Determine its reported collision cross section: IVFSGNLFQHQEDSKK [_IVFSGNLFQHQEDSK(Succinyl)K_]
493.41

Retrieve collision cross section measured for VTLEVGKVIQQGR [_VTLEVGK(Succinyl)VIQQGR_] and print it.
412.33

State, in one line, measured collision cross section of ILDLKTGTVK [_ILDLK(Succinyl)TGTVK_]
362.99

State its collision cross section for this sequence: LTSLNVKYNNDK [_LTSLNVK(Succinyl)YNNDK_]
411.65

Look up and state reported collision cross section for VNALKNLQVK [_VNALK(Succinyl)NLQVK_]
370.5

Give recorded collision cross section. PSVGSQSNQAGQGKR [_PSVGSQSNQAGQGK(Succinyl)R_]
415.39

Name the recorded collision cross section of the item VDIDVPDVNIEGPDAKLK [_VDIDVPDVNIEGPDAK(Succinyl)LK_] in your answer.
479.51
